# MEASURED TARGET: uPA (recombinant urokinase plasminogen activator) (Homo sapiens)
# Construct: purchased HYPHEN BioMed
# TEST: IC50 determination, spectrophotometric protease assay
# Type: biochemical
# Description: The IC50 values were determined using a spectrophotometric assay. All the experiments were conducted in duplicate. The readout consisted of evaluating the protease-mediated release of the chromophore para-nitroaniline (pNA) or fluorophore 7-amino-4-methyl coumarin (AMC) moieties from the respective substrates. Enzymatic activity was measured for 30 min at 37°C. All compounds were initially screened at three concentrations (10, 1, and .1 μM) to estimate the range of the IC50 value. […]
PARAMETER: pIC50
Answers are plain numbers, as −log10 of the molar value.

Reference set, count: 4
1) C#CCCCOC(=O)NC(Cc1ccc(NC(=N)N)cc1)P(=O)(Oc1ccc(Cl)cc1)Oc1ccc(Cl)cc1 (stereo not shown) [36b] = 8.30
2) C#CCCCOC(=O)NC(CCCNC(=N)N)P(=O)(Oc1ccc(Cl)cc1)Oc1ccc(Cl)cc1 (stereo not shown) [33b] = 6.60
3) C#CCCCOC(=O)NC(CCCCN)P(=O)(Oc1ccc(NC(=O)OC)cc1)Oc1ccc(NC(=O)OC)cc1 (stereo not shown) [30b] = 5.61
4) C#CCCCOC(=O)NC(c1ccc(NC(=N)N)cc1)P(=O)(Oc1ccc(NC(C)=O)cc1)Oc1ccc(NC(C)=O)cc1 (stereo not shown) [38b] = 5.82

Now for the compound whose pIC50 we want.
Using the record for C[C@@H]1NC(=O)N[C@@H]1CCCCCC(=O)NCCOCCOCCOCCn1cc(CCCOC(=O)NC(Cc2ccc(NC(=N)N)cc2)P(=O)(Oc2ccc(Cl)cc2)Oc2ccc(Cl)cc2)nn1 (stereo partly shown) [54b] , report its pIC50. 8.22

====

# MEASURED TARGET: β-tryptase (Homo sapiens, UniProt P20231)
# Sequence (P20231 31-275): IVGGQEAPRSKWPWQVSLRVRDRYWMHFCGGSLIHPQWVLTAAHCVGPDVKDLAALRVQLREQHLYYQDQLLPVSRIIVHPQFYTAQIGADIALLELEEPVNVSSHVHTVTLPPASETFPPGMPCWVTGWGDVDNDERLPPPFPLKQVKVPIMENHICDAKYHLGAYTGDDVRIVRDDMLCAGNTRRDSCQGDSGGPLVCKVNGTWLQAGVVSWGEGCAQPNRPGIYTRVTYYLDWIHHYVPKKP
# TEST: Kinetic progress curves (kapp, K1, KI*, mechanism)
# Format: biochemical
# Parameters: purchased EnzoLife Sciences
# CONDITION PARAMETERS: β-tryptase KI*, apparent equilibrium constant of the overall process; mean ± SD
Would you kindly list Ki for each of these compounds?
Answers are plain numbers, in nM.

1. CC(=O)Nc1ccc(OP(=O)(Oc2ccc(NC(C)=O)cc2)C(Cc2ccc(NC(=N)N)cc2)NC(=O)OCCCc2cn(CCOCCOCCOCCNC(=O)CCCCC[C@H]3NC(=O)N[C@H]3C)nn2)cc1 (stereo partly drawn) [52b] = 60
2. C#CCCCOC(=O)NC(Cc1ccc(NC(=N)N)cc1)P(=O)(Oc1ccccc1)Oc1ccccc1 (stereo not drawn) [34b] = 1110
3. C#CCCCOC(=O)NC(Cc1ccc(NC(=N)N)cc1)P(=O)(Oc1ccc(Cl)cc1)Oc1ccc(Cl)cc1 (stereo not drawn) [36b] = 90
4. C#CCCCOC(=O)NC(Cc1ccc(NC(=N)N)cc1)P(=O)(Oc1ccc(NC(C)=O)cc1)Oc1ccc(NC(C)=O)cc1 (stereo not drawn) [35b] = 120
5. C[C@@H]1NC(=O)N[C@@H]1CCCCCC(=O)NCCOCCOCCOCCn1cc(CCCOC(=O)NC(Cc2ccc(NC(=N)N)cc2)P(=O)(Oc2ccc(Cl)cc2)Oc2ccc(Cl)cc2)nn1 (stereo partly drawn) [54b] = 20

Next compound, please.
Entry under review: C[C@@H]1NC(=O)N[C@@H]1CCCCCC(=O)NCCOCCOCCOCCn1cc(CCCOC(=O)NC(Cc2ccc(NC(=N)N)cc2)P(=O)(Oc2ccccc2)Oc2ccccc2)nn1 (stereo partly drawn) [50b] . Reported Ki? 410

====

# MEASURED TARGET: Thrombin (recombinant thrombin) (Homo sapiens)
# Construct: purchased R&D
# TEST: IC50 determination, spectrophotometric protease assay
# Assay type: biochemical
pIC50: −log10 of the molar value.
PARAMETER: pIC50

Solved cases below.
1) C#CCCCOC(=O)NC(C1CCNCC1)P(=O)(Oc1ccccc1)Oc1ccccc1 (stereo not shown) [23b] = < 5.00
2) C#CCCCOC(=O)NC(C(C)C)P(=O)(Oc1ccccc1)Oc1ccccc1 (stereo not shown) = < 5.00
3) C#CCCCOC(=O)NC(c1ccc(NC(=N)N)cc1)P(=O)(Oc1ccccc1)Oc1ccccc1.O=C(O)C(F)(F)F (stereo not shown) [37b] = < 5.00

For the next question, use this compound.
Would you kindly share the measured pIC50 for C#CCCCOC(=O)NC(Cc1ccc(NC(=N)N)cc1)P(=O)(Oc1ccccc1)Oc1ccccc1 (stereo not shown) [34b] ? 5.07

====

# MEASURED TARGET: Cathepsin G (cathepsin G human neutrophil) (Homo sapiens)
# Construct: Cathepsin G (cathepsin G human neutrophil, Sigma-Aldrich); purchased Sigma-Aldrich; host or cells: human neutrophil
# Sequence (P08311 21-255): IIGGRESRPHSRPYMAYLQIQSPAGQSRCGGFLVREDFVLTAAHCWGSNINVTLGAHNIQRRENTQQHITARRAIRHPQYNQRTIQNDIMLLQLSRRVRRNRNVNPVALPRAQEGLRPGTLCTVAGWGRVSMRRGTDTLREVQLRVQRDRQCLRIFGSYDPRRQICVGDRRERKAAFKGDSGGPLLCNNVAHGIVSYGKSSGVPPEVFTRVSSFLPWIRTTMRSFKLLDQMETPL
# TEST: IC50 determination, spectrophotometric protease assay
# Format: biochemical
Task for the reader: assign each of the following compounds its reported IC50.

Example results:
1. C#CCCCOC(=O)NC(c1ccc(N)cc1)P(=O)(Oc1ccc(Cl)cc1)Oc1ccc(Cl)cc1 (stereo not shown) [21b] = > 10000 nM
2. C[C@@H]1NC(=O)N[C@@H]1CCCCCC(=O)NCCOCCOCCOCCn1cc(CCCOC(=O)NC(Cc2ccc(NC(=N)N)cc2)P(=O)(Oc2ccccc2)Oc2ccccc2)nn1 (stereo partly shown) [50b] = 360 nM

// each compound listed below needs its IC50
1. C#CCCCOC(=O)NC(CCCN)P(=O)(Oc1ccccc1)Oc1ccccc1.O=C(O)C(F)(F)F (stereo not shown) [14b]
2. C#CCCCOC(=O)NC(Cc1ccc(N)cc1)P(=O)(Oc1ccc(NC(C)=O)cc1)Oc1ccc(NC(C)=O)cc1 (stereo not shown) [17b]
3. C#CCCCOC(=O)NC(c1ccc(NC(=N)N)cc1)P(=O)(Oc1ccc(Cl)cc1)Oc1ccc(Cl)cc1 (stereo not shown) [39b]
4. C#CCCCOC(=O)NC(c1ccc(NC(=N)N)cc1)P(=O)(Oc1ccccc1)Oc1ccccc1.O=C(O)C(F)(F)F (stereo not shown) [37b]
5. C#CCCCOC(=O)NC(c1ccc(N)cc1)P(=O)(Oc1ccc(NC(C)=O)cc1)Oc1ccc(NC(C)=O)cc1 (stereo not shown) [20b]

> 10000 nM
370 nM
90 nM
640 nM
> 10000 nM

====

# MEASURED TARGET: Thrombin (Homo sapiens)
# Construct: purchased R&D
# TEST: Kinetic progress curves (kapp, K1, KI*, mechanism)
# Assay type: biochemical
# CONDITION PARAMETERS: read-out: Thrombin K1; apparent equilibrium constant of the first step of slow-binding; mean ± SD
PARAMETER: pKi
Numbers only, as −log10 of the molar value.

1. C[C@@H]1NC(=O)N[C@@H]1CCCCCC(=O)NCCOCCOCCOCCn1cc(CCCOC(=O)NC(CCCNC(=N)N)P(=O)(Oc2ccccc2)Oc2ccccc2)nn1 (some centres unmarked) [45b] = 5.00

Then there is this molecule:
Recorded pKi for C[C@@H]1NC(=O)N[C@@H]1CCCCCC(=O)NCCOCCOCCOCCn1cc(CCCOC(=O)NC(CCCNC(=N)N)P(=O)(Oc2ccc(Cl)cc2)Oc2ccc(Cl)cc2)nn1 (some centres unmarked) [46b] with Thrombin (Homo sapiens), please? 6.02

====

# MEASURED TARGET: uPA (Homo sapiens, UniProt P00749)
# Construct: purchased HYPHEN BioMed
# TEST: Kinetic progress curves (kapp, mechanism)
# Assay type: biochemical
# CONDITION PARAMETERS: apparent second-order rate constant from progress curves; mean ± SD
# Method: Because the compounds described in this paper were previously described as irreversible inhibitors, the IC50 value is inversely correlated with the second-order rate constant of inactivation. […] The inactivation rate constant was determined from the time course of inhibition. Kinetic assays were performed in the following manner. […] Progress curves were recorded in pseudo-first-order conditions ([I]0>>[E]0) and with less than 10% conversion of the substrate during the entire time course. […]
PARAMETER: log10(uPA kapp) (log10 of the value in M⁻¹ s⁻¹)
Values below are the log10 of the recorded uPA kapp, with M⁻¹ s⁻¹ as the unit.

State the recorded log10(uPA kapp) for every item in the following list.
1. C#CCCCOC(=O)NC(Cc1ccc(NC(=N)N)cc1)P(=O)(Oc1ccc(Cl)cc1)Oc1ccc(Cl)cc1 (stereo not drawn) [36b]
2. C#CCCCOC(=O)NC(c1ccc(NC(=N)N)cc1)P(=O)(Oc1ccccc1)Oc1ccccc1.O=C(O)C(F)(F)F (stereo not drawn) [37b]
3. C[C@@H]1NC(=O)N[C@@H]1CCCCCC(=O)NCCOCCOCCOCCn1cc(CCCOC(=O)NC(c2ccc(NC(=N)N)cc2)P(=O)(Oc2ccccc2)Oc2ccccc2)nn1 (stereo partly drawn) [55b]
4. C[C@@H]1NC(=O)N[C@@H]1CCCCCC(=O)NCCOCCOCCOCCn1cc(CCCOC(=O)NC(CCCNC(=N)N)P(=O)(Oc2ccc(Cl)cc2)Oc2ccc(Cl)cc2)nn1 (stereo partly drawn) [46b]
5. C#CCCCOC(=O)NC(c1ccc(NC(=N)N)cc1)P(=O)(Oc1ccc(NC(C)=O)cc1)Oc1ccc(NC(C)=O)cc1 (stereo not drawn) [38b]

1. 5.51
2. 2.09
3. 1.89
4. 2.97
5. 2.33
